- TARGET_OR_SYSTEM: Polyunsaturated fatty acid lipoxygenase ALOX15 (Homo sapiens) (UniProt P16050)
- PROTOCOL_DESCRIPTION: Inhibition of recombinant human 15-LOX-1 expressed in Escherichia coli BL21(DE3) assessed as residual activity at 50 uM using linoleic acid as substrate preincubated for 10 mins followed by substrate addition
MEASURED_PARAMETER: Activity (%)

Nc1[nH]c(C(=O)c2ccccc2)c(-c2ccncc2)c1C(=O)NCc1cccc2ccccc12 95.1

I = CCCCNC(=O)c1c(N)[nH]c(C(=O)c2ccccc2)c1-c1ccc(Cl)cc1
II = N#Cc1c(N)[nH]c(C(=O)c2ccccc2)c1-c1ccccc1Br
III = Nc1[nH]c(C(=O)c2ccccc2)c(-c2ccc(Cl)c(Cl)c2)c1C(=O)NCCc1c[nH]c2ccccc12
IV = Nc1[nH]c(C(=O)c2ccccc2)c(-c2cccc(C(F)(F)F)c2)c1C(=O)NCc1cccc2ccccc12
Exam item: // ascending sort on recorded Activity The response must list the labels following the requested ordering.
Marked response: IV, III, II, I
(IV: 2.31%, III: 36.8%, II: 62.3%, I: 104%)

* * *

- TARGET_OR_SYSTEM: Polyunsaturated fatty acid lipoxygenase ALOX15 (Homo sapiens) (UniProt P16050)
- Sequence (whole entry): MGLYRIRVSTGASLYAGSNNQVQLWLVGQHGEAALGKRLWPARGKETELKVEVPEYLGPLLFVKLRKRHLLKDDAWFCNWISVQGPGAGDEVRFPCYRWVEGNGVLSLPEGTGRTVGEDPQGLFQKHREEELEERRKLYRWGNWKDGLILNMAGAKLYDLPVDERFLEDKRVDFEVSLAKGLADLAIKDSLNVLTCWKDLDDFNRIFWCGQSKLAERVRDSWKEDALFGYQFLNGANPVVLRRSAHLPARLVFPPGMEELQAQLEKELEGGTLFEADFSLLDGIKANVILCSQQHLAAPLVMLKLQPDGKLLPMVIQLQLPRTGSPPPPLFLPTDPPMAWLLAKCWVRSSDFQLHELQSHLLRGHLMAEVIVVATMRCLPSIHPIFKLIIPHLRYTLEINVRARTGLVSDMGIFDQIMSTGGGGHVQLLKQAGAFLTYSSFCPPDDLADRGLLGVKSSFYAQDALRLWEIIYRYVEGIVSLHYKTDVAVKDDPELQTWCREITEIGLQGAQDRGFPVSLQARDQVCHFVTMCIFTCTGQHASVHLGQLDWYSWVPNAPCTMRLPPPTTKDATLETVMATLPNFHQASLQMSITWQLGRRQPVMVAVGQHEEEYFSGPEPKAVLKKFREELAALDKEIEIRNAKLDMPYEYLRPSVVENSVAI
- PROTOCOL_DESCRIPTION: Inhibition of recombinant human 15-LOX-1 expressed in Escherichia coli BL21(DE3) assessed as residual activity at 50 uM using linoleic acid as substrate preincubated for 10 mins followed by substrate addition
MEASURED_PARAMETER: Activity (%)

MOLECULE	TARGET_OR_SYSTEM	READOUT_UNIT	Activity
Nc1[nH]c(C(=O)c2ccccc2)c(-c2ccc(Cl)cc2)c1C(=O)c1c[nH]c2ccc(Br)cc12	Polyunsaturated fatty acid lipoxygenase ALOX15 (Homo sapiens) (UniProt P16050)	%	50.9
N#Cc1c(N)[nH]c(C(=O)c2ccccc2)c1-c1ccc(Cl)cc1	Polyunsaturated fatty acid lipoxygenase ALOX15 (Homo sapiens) (UniProt P16050)	%	92.2
COc1ccc(C(=O)c2[nH]c(N)c(C(=O)NCCc3c[nH]c4ccccc34)c2-c2ccc(Cl)cc2)cc1	Polyunsaturated fatty acid lipoxygenase ALOX15 (Homo sapiens) (UniProt P16050)	%	68.1
Nc1[nH]c(C(=O)c2ccccc2)c(-c2cccc(Br)c2)c1C(=O)c1ccccc1	Polyunsaturated fatty acid lipoxygenase ALOX15 (Homo sapiens) (UniProt P16050)	%	61.2
Nc1[nH]c(C(=O)c2ccccc2)c(-c2c(F)cccc2Cl)c1C(=O)NCCc1c[nH]c2ccccc12	Polyunsaturated fatty acid lipoxygenase ALOX15 (Homo sapiens) (UniProt P16050)	%	92.7

1 = NC(=O)c1c(N)[nH]c(C(=O)c2ccccc2)c1-c1ccc2ccccc2c1
2 = COc1ccc(-c2c(C(=O)c3ccccc3)[nH]c(N)c2C(N)=O)cc1OC
Exam item: Pick one: 1 or 2 . Which one has the lower reported Activity? API: response body contains the label of the selected item.
Marked response: 1

P = Nc1[nH]c(C(=O)c2ccccc2)c(-c2ccc(F)cc2)c1C(=O)Cc1ccccc1
Q = NC(=O)c1c(N)[nH]c(C(=O)c2ccccc2)c1-c1ccccc1Cl
R = Nc1[nH]c(C(=O)c2ccccc2)c(-c2ccc(C(F)(F)F)cc2)c1C(=O)NCCc1c[nH]c2ccccc12
Exam item: Thanks in advance: please rank these 3 entries by Activity, highest to lowest. Hello, could you send the labels back in the order asked? Thank you.
Marked response: Q, P, R
(Q: 114%, P: 75.1%, R: 43.5%)

I = Nc1[nH]c2cc(Cl)ccc2c1C(=O)N1CCOCC1
II = COc1ccccc1CCNC(=O)c1c(N)[nH]c(C(=O)c2ccccc2)c1-c1ccc(Br)cc1
Exam item: For the two items I and II , which reports the higher Activity value? In your reply, give the label of the chosen option.
Marked response: I
(I: 107%, II: 64.5%)

* * *

- TARGET_OR_SYSTEM: UniProtKB P16050
- PROTOCOL_DESCRIPTION: Inhibition of recombinant human 15-LOX-1 expressed in Escherichia coli BL21(DE3) using linoleic acid as substrate preincubated for 10 mins followed by substrate addition
MEASURED_PARAMETER: pIC50
Please treat pIC50 as minus the base-10 logarithm of the molar concentration.

Nc1[nH]c(C(=O)c2ccccc2)c(-c2ccc(O)cc2O)c1C(=O)c1cccc(Cl)c1 5.08

Next compound, pIC50 to be filled in.
Exam item: Please state recorded pIC50 (tested on UniProtKB P16050) of "Nc1[nH]c(C(=O)c2ccccc2)c(-c2ccc(Cl)cc2Cl)c1C(=O)c1cccc(Br)c1"
Marked response: 5.20

* * *

- TARGET_OR_SYSTEM: Polyunsaturated fatty acid lipoxygenase ALOX15 (Homo sapiens) (UniProt P16050)
- PROTOCOL_DESCRIPTION: Inhibition of recombinant human 15-LOX-1 expressed in Escherichia coli BL21(DE3) assessed as residual activity at 50 uM using linoleic acid as substrate preincubated for 10 mins followed by substrate addition
MEASURED_PARAMETER: Activity (%)

Nc1[nH]c(C(=O)c2ccccc2)c(-c2ccccc2C(F)(F)F)c1C(=O)NCc1cccc2ccccc12 85
Nc1[nH]c(C(=O)c2ccc(Br)cc2)c(-c2ccc(F)cc2)c1C(=O)NCCc1c[nH]c2ccccc12 68.9

P = Nc1[nH]c(C(=O)c2ccc(Br)cc2)c(-c2ccccc2Br)c1C(=O)NCCc1c[nH]c2ccccc12
Q = COc1ccc(C(=O)c2[nH]c(N)c(C(=O)NCCc3c[nH]c4ccccc34)c2-c2ccc(Br)cc2)cc1
Exam item: I'd appreciate it if you could identify which of P and Q has the greater Activity. Please indicate the selected item by its label.
Marked response: P
(P: 83.1%, Q: 40.1%)

A = COC(=O)c1c(N)[nH]c(C(=O)c2ccccc2)c1-c1ccccc1Br
B = NC(=O)c1c(N)[nH]c(C(=O)c2ccccc2)c1-c1ccc(Cl)cc1Cl
Exam item: Larger number for Activity: A , or B ? // caller expects the label of the chosen entry
Marked response: B
(B: 109%, A: 74.8%)

I = Nc1[nH]c(C(=O)c2ccccc2)c(-c2ccccn2)c1C(=O)c1c[nH]c2cc(F)ccc12
II = COc1ccc(-c2c(C(=O)c3ccc(Br)cc3)[nH]c(N)c2C(=O)NCCc2c[nH]c3ccccc23)cc1OC
Exam item: Hi team, can someone confirm which has the larger Activity: I or II ? Thanks. The response must carry the label of the picked entry.
Marked response: I
(I: 98.5%, II: 63.8%)

* * *

- TARGET_OR_SYSTEM: Polyunsaturated fatty acid lipoxygenase ALOX15 (Homo sapiens) (UniProt P16050)
- Sequence (whole entry): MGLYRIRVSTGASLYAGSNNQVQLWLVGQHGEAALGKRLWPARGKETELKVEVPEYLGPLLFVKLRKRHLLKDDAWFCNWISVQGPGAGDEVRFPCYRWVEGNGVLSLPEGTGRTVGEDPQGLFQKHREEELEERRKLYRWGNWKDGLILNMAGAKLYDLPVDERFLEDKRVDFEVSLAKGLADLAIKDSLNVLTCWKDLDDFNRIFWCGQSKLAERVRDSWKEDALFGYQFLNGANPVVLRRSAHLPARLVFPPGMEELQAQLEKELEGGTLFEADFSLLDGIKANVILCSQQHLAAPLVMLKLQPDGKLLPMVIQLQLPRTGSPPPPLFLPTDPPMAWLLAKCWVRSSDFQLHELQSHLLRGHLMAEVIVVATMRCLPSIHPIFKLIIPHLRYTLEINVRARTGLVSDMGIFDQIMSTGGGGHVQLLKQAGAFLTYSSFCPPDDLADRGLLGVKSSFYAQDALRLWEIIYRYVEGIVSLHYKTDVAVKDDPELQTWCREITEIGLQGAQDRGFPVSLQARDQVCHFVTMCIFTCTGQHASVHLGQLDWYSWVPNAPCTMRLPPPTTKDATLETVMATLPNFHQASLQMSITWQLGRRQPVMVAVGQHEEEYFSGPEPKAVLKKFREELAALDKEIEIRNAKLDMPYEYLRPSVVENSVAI
- PROTOCOL_DESCRIPTION: Inhibition of recombinant human 15-LOX-1 expressed in Escherichia coli BL21(DE3) assessed as residual activity at 50 uM using linoleic acid as substrate preincubated for 10 mins followed by substrate addition
MEASURED_PARAMETER: Activity (%)

Example results:
Nc1[nH]c(C(=O)c2ccc(Br)cc2)c(-c2cccc3ccccc23)c1C(=O)NCCc1c[nH]c2ccccc12 46.7
Nc1[nH]c(C(=O)c2ccc(Br)cc2)c(-c2ccc(Br)cc2)c1C(=O)NCc1ccc(F)cc1 102
Nc1[nH]c(C(=O)c2ccccc2)c(-c2ccc(F)cc2)c1C(=O)NCCc1c[nH]c2ccccc12 59.6

a = Cc1cc(C)cc(-c2c(C(=O)c3ccc(Br)cc3)[nH]c(N)c2C(=O)NCc2ccc(Cl)cc2)c1
b = COc1ccc(-c2c(C(=O)c3ccccc3)[nH]c(N)c2C(=O)NCCc2c[nH]c3ccccc23)cc1
Exam item: Exercise: compare a and b ; which one has the greater Activity? Reply briefly: the label of your chosen item.
Marked response: a
(a: 98.5%, b: 35.3%)

a = Nc1[nH]c2ccccc2c1C(=O)NC1CC1
b = Nc1[nH]c(C(=O)c2ccc(Br)cc2)c(-c2ccc(Br)cc2)c1C(=O)NC1CCCCC1
c = COc1cc(-c2c(C(=O)c3ccccc3)[nH]c(N)c2C(=O)NCCc2c[nH]c3ccccc23)ccc1F
Exam item: Order the entries by their reported Activity, beginning at the minimum. Return the labels ranked in the requested order, please.
Marked response: c, b, a

P = Nc1[nH]c(C(=O)c2ccccc2)c(-c2ccncc2)c1C(=O)NC1CC1
Q = Nc1[nH]c(C(=O)c2ccccc2)c(-c2ccccc2C(F)(F)F)c1C(=O)NCCc1c[nH]c2ccccc12
Exam item: Given P and Q , report the one with the higher recorded Activity. Choose, then provide that item's label.
Marked response: P

I = COc1ccc(C(=O)c2[nH]c(N)c(C(=O)c3ccccc3)c2-c2ccc(OC)c(OC)c2)cc1
II = N#Cc1c(N)[nH]c(C(=O)c2ccccc2)c1-c1ccc(Br)cc1
III = COc1ccc2cccc(-c3c(C(=O)c4ccc(Br)cc4)[nH]c(N)c3C(=O)NC3CCCCC3)c2c1
Exam item: Could you please order the items by Activity, going from the lowest number to the highest? Lab note: record answer as labels in requested order.
Marked response: III, II, I
(III: 34%, II: 63.4%, I: 95.7%)
